The measurements presented in this section are drawn from PubChem BioAssay AID505.

# SYSTEM_UNDER_TEST: Serine/threonine-protein kinase pim-2 (Homo sapiens)
# METHOD: PIM2 kinase ligand binding by thermal shift, biophysical, human, melting temperature shift (AID 505)
# APPLIED_CONDITIONS: Recombinant PIM2 thermal shift, Tm change; at 10 µM; buffer 10 mM HEPES; pH 7.5; NaCl 150 mM; with 50 µM L-Arg/L-Glu (1:1); stronger effect = higher value
# key: entry, value: Tm shift

Recorded results for 8 compounds are shown here.
Cc1c2ccncc2c(C)c2c1[nH]c1ccccc12; 4.8 Celsius
O=C1NC(=O)C(c2c[nH]c3ccccc23)=C1c1c[nH]c2ccccc12; 4.02 Celsius
O=Nc1c(-c2c(O)[nH]c3ccc(S(O)(O)O)cc23)[nH]c2ccccc12; 4.1 Celsius
O=c1[nH]c(O)c2c1c1c3ccccc3nc1n1cncc21; 8 Celsius
O=C1C(=O)C(c2ccccc2)Oc2ccc(O)cc21 (stereo not drawn); 3.1 Celsius
O=c1cc(-c2ccc(O)cc2)oc2cc(O)cc(O)c12; 3.8 Celsius
COc1c(C=O)c(O)cc2c1C(=O)c1ccccc1C2=O; 3.3 Celsius
NC1=N/C(=C2/CCNC(=O)c3[nH]c(Br)cc32)C(=O)N1; 3.7 Celsius

# Tm shift (compound: `O=c1c(O)c(-c2ccc(O)cc2)oc2cc(O)cc(O)c12` ) is 5.81 Celsius

# Tm shift (compound: `N#C/C(=C1\Nc2ccccc2S1)c1ccnc(NCCc2cccnc2)n1` ) is 7.4 Celsius

# Tm shift (compound: `CC(C)(C)c1nc2c3cc[nH]c(=O)c3c3cc(F)ccc3c2[nH]1` ) is 5.1 Celsius

# Tm shift (compound: `Fc1cccc(-c2cnc3ccc(NC4CCOCC4)nn23)c1` ) is 3.17 Celsius

# Tm shift (compound: `NCCNc1ncc(C(N)=O)c(Nc2cccc(C(F)(F)F)c2)n1` ) is 5.8 Celsius

# Tm shift (compound: `O=c1c(O)c(-c2ccc(O)c(O)c2)oc2cc(O)ccc12` ) is 6.11 Celsius

# Tm shift (compound: O=C1C(=O)C(c2cccc(O)c2)Oc2ccccc21 (stereo not drawn) ) is 4.5 Celsius

# Tm shift (compound: `Brc1c(Br)c(Br)c2n[nH]nc2c1Br` ) is 4.25 Celsius

# Tm shift (compound: COc1cc(C2Oc3cc(O)cc(O)c3C(=O)C2=O)ccc1O (stereo not drawn) ) is 7.24 Celsius

# Tm shift (compound: CCC(CO)Nc1ccc2ncc(-c3ccc(F)c(Cl)c3)n2n1 (stereo not drawn) ) is 5.54 Celsius

# Tm shift (compound: `O=c1c(-c2ccc(O)cc2)coc2cc(O)cc(O)c12` ) is 3.3 Celsius

# Tm shift (compound: `CC(C)[C@@H](CO)Nc1ccc2ncc(-c3cccc(Cl)c3)n2n1` ) is 4.69 Celsius

# Tm shift (compound: CC(O)(O)C1(O)C[C@@H]2O[C@@]1(C)n1c3ccccc3c3c4c(c5c6ccccc6n2c5c31)C(=O)NC4 (stereo partly drawn) ) is 3.79 Celsius

# Tm shift (compound: `Cc1cc(O)c2c(c1)C(=O)c1cc(O)cc(O)c1C2=O` ) is 4.2 Celsius

# Tm shift (compound: `COC(=O)c1cnc2oc3ccc(O)cc3c2c1-c1ccccc1` ) is 6.25 Celsius
